maximum recommended daily dose (mmol/kg-bw/day) listing for selected molecules.
System: human maximum recommended daily dose, FDA database
Assay: DSSTox (FDAMDD) FDA Maximum (Recommended) Daily Dose Database
Settings: TherapeuticCategory: narcotic antagonist; hits give low values
Reply with just the number.

Reference set, count: 4
Notebook entry, human maximum recommended daily dose, FDA database assay: maximum recommended daily dose (mmol/kg-bw/day) of C=CCN1CC[C@]23c4c5ccc(O)c4O[C@H]2[C@@H](O)C=C[C@H]3[C@H]1C5 = ?
0.00214

Consider next the molecule C=CCN1CC[C@]23c4c5ccc(O)c4O[C@H]2C(=O)CC[C@@]3(O)[C@H]1C5 in the same way.
0.000305

Can you handle CC1C2Cc3ccc(O)cc3C1(C)CCN2CC1CC1 (stereo not given) next?
0.000246

C=C1CC[C@@]2(O)[C@H]3Cc4ccc(O)c5c4[C@@]2(CCN3CC2CC2)[C@H]1O5 ?
0.00245

Here is the next item to consider.
Report maximum recommended daily dose (mmol/kg-bw/day) for C=CCN1CC[C@]23CCCC[C@H]2[C@H]1Cc1ccc(O)cc13 tested on human maximum recommended daily dose, FDA database.
0.000235

* * *

Form field: maximum recommended daily dose (mmol/kg-bw/day) (one value per entry).
Tested on: human maximum recommended daily dose, FDA database
Assay: DSSTox (FDAMDD) FDA Maximum (Recommended) Daily Dose Database
Details: TherapeuticCategory: antihelmintic; hits give low values
Just the number, please.

// lookup maximum recommended daily dose (mmol/kg-bw/day) | system=human maximum recommended daily dose, FDA database | key= CCN(CC)CCNc1ccc(CO)c2sc3ccccc3c(=O)c12
0.0281

Further cases:
Lab request: please report maximum recommended daily dose (mmol/kg-bw/day) under test system human maximum recommended daily dose, FDA database for CCN(CC)CCNc1ccc(C)c2sc3ccccc3c(=O)c12
0.0978

* * *

Test system: human maximum recommended daily dose, FDA database
Assay: DSSTox (FDAMDD) FDA Maximum (Recommended) Daily Dose Database
Details: TherapeuticCategory: antiandrogen; hits give low values
Listing: maximum recommended daily dose (mmol/kg-bw/day) of selected compounds

Would you mind telling me what maximum recommended daily dose (mmol/kg-bw/day) value was observed for CC(=O)[C@@]1(O)CC[C@H]2[C@@H]3C=C(Cl)C4=CC(=O)[C@@H]5C[C@@H]5[C@]4(C)[C@H]3CC[C@@]21C ?
0.0133

Ok, now CC(=O)O[C@]1(C(C)=O)CC[C@H]2[C@@H]3C=C(Cl)C4=CC(=O)[C@@H]5C[C@@H]5[C@]4(C)[C@H]3CC[C@@]21C
0.012

* * *

System: human maximum recommended daily dose, FDA database
Assay: DSSTox (FDAMDD) FDA Maximum (Recommended) Daily Dose Database
Conditions: TherapeuticCategory: anorexic; hits give low values
Threshold 0.006. maximum recommended daily dose (mmol/kg-bw/day) below it: condition met. maximum recommended daily dose (mmol/kg-bw/day) at it or above: condition not met.

Answered examples (6):
Check if maximum recommended daily dose (mmol/kg-bw/day) falls below 0.006 for C[C@@H](Cc1ccccc1)N(C)Cc1ccccc1 .
condition not met

// same read-out, input: CC1C(c2ccccc2)OCCN1C (centres undefined)
condition not met

Quick one: CC(C)(N)Cc1ccccc1
condition met

Query CCNC(C)Cc1cccc(C(F)(F)F)c1 (centres undefined) next
condition not met

Try the molecule CC(C)CC(N(C)C)C1(c2ccc(Cl)cc2)CCC1 (centres undefined)
condition met

Another: OC1(c2ccc(Cl)cc2)c2ccccc2C2=NCCN21 (centres undefined)
condition met

# ---- query molecule ----
Regarding CC(C)(N)Cc1ccccc1Cl , kindly confirm whether its maximum recommended daily dose (mmol/kg-bw/day) is beneath 0.006.
condition met
